Tested on: HCT 116 human colon carcinoma cells
test.name: Antiproliferative activity against HCT 116 human colon carcinoma cells (XTT, 72 hours)
Assay type: cell-based
test.settings: read-out: GI50, concentration of compound which induces 50% inhibition of cell proliferation, HCT 116 cells, 72 hours incubation
reported.metric: GI50

Solved cases below.
| compound | GI50 |
| --- | --- |
| CC(C)(C)C(=O)NC1=NN(C(=O)C(C)(C)C)C(CCNCCCN2CCCC2=O)(c2ccccc2)S1 (stereo not drawn) | 0.065 µM |
| CN(C)CCS(=O)(=O)NCCCC1(c2ccccc2)SC(N2CCCCC2=O)=NN1C(=O)C(C)(C)C (stereo not drawn) | < 10 µM |

Now turn to the next compound.
Req: For the compound CC(=O)N1N=C(N2CCCCC2=O)SC1(CCNC(=O)CCCN(C)C)c1ccccc1 (stereo not drawn) , report GI50.
Resp: < 10 µM

Reference for the values: patent US20070276017A1
